- system-name: human LSD1(171-852) (Homo sapiens)
- Construct: to give hLSD1(171-852) purified product; made in house; host or cells: Escherichia coli C43(DE3) pLysS
- test-details: Measurement of LSD1 inhibitory activity (time-resolved fluorescence, biotin-histone H3 mono methylated K4 peptide)
- Format: biochemical
- condition-parameters: read-out: LSD1 IC50 value
- Procedure: When the turbidity reached 600 Klett units, the culture temperature was changed to 16° C., IPTG having a final concentration of 0.5 mM was added to induce expression, and the cells were cultured further for 21 hr. […] After reaction at room temperature for 20 min, 1 mM 2-PCPA solution (5 μL) was added to terminate the reaction. […] A time-resolved fluorescence (excitation 320 nm, emission 615 nm, 665 nm) was measured by Envision (PerkinElmer). […]
pIC50: −log10 of the molar value. Structures can show the parent of a compound that is named as a salt.
Assign pIC50 to each entry below.

Worked cases, pIC50 given:
What value of measured pIC50 is listed for O=C(Nc1ccc([C@@H]2C[C@H]2NCC2CC2)cc1)c1ccc(-n2cccc2)cc1 (relative stereo) [Example 117] ? > 7.00

Entry O=C(Nc1ccc([C@@H]2C[C@H]2NC2CCCCCCC2)cc1)c1ccc(-c2ccccc2)cc1 (relative stereo) [Example 45] has what pIC50? 6.54

Dear colleague, I am looking for the recorded pIC50 of the following compound: O=C(Nc1ccc([C@@H]2C[C@H]2NCC2CC2)cc1)c1c[nH]c2ccccc12 (relative stereo) [Example 127] 7.00

Request the reported pIC50 associated with O=C(Nc1ccc([C@@H]2C[C@H]2NCCOCc2ccccc2)cc1)c1ccccc1 (relative stereo) [Example 26] > 7.00

Can you look up the measured pIC50 of COc1ccc(CN[C@@H]2C[C@H]2c2ccc(NC(=O)c3ccc(-c4ccccc4)cc3)cc2)cc1OC (relative stereo) [Example 46] for me? > 7.00

Query (compound): O=C(Nc1ccc([C@@H]2C[C@H]2NCc2cccnc2)cc1)c1ccccc1 (relative stereo) [Example 12, bis(trifluoroacetate)] ; field requested: pIC50 > 7.00

Turning to the following compound.
I am curious: what pIC50 value has been reported for O=C(Nc1ccc([C@@H]2C[C@H]2NCC2CC2)cc1)c1cccc(Cn2cncn2)c1 (relative stereo) [Example 147, hydrochloride] ? > 7.00

###

- system-name: MAO-A (Homo sapiens)
- Sequence (P21397 1-527): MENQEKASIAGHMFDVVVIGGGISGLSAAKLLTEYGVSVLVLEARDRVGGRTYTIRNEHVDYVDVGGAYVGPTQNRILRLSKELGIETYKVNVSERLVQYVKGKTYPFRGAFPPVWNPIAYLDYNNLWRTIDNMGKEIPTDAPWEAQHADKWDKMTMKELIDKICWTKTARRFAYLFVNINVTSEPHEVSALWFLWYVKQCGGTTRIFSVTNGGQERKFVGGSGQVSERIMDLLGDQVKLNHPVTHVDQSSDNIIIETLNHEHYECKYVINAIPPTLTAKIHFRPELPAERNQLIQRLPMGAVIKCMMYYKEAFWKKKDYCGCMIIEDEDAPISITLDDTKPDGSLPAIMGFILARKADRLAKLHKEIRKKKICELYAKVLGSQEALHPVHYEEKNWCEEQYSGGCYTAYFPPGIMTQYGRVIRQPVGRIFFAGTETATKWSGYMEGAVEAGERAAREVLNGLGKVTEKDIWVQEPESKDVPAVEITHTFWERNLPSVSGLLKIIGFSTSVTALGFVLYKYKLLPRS
pIC50: −log10 of the molar value. Where a name gives a salt, the structure may show the parent alone.
measured-quantity: pIC50

Example results:
Would you kindly share the measured pIC50 for CN1CCC(N[C@@H]2C[C@H]2c2ccc(NC(=O)c3cccc(C(F)(F)F)c3)cc2)CC1 (relative stereo) [Example 76, dihydrochloride] ? < 5.00

pIC50 lookup needed for CN1C2CCC1CC(N[C@@H]1C[C@H]1c1ccc(NC(=O)c3cccc(C(F)(F)F)c3)cc1)C2 (relative stereo) [Example 149, dihydrochloride] , thanks. < 5.00

Tell me the measured pIC50 of O=C(Nc1ccc([C@@H]2C[C@H]2NCc2ccccc2)cc1)c1cccc(CCc2ccccc2)c1 (relative stereo) , please. < 5.00

Name the recorded pIC50 for O=C(Nc1ccc([C@@H]2C[C@H]2NCC2CC2)cc1)c1ccc(OC(F)(F)F)cc1 (relative stereo) [Example 108, hydrochloride] . < 5.00

For the compound shown here, O=C(Nc1ccc([C@@H]2C[C@H]2NCc2ccc(-c3ccccc3)cc2)cc1)c1ccccc1 (relative stereo) , give the reported pIC50. 5.33

Each of the following entries comes with a recorded value; kindly state pIC50 for each.
1. CC(=O)N1CCC(N[C@@H]2C[C@H]2c2ccc(NC(=O)c3ccc(-c4ccccc4)cc3)cc2)CC1 (relative stereo) [Example 62, hydrochloride]
2. Cc1cc(C2CC2NCC2CC2)ccc1NC(=O)c1ccccc1 (stereo not drawn) [Example 81, hydrochloride]
3. O=C(Nc1ccc([C@@H]2C[C@H]2NCC2CC2)cc1)c1cnc(-c2ccccc2)o1 (relative stereo)
4. Cc1ccc(C(=O)Nc2ccc([C@@H]3C[C@H]3NCC3CC3)cc2)cc1C (relative stereo) [Example 105, hydrochloride]

1. < 5.00
2. < 5.00
3. < 5.00
4. < 5.00
